Reference source for all entries: paper PMC6271202

- Test system: T. b. rhodesiense STIB 900 strain
- ASSAY_NOTES: Antitrypanosomal assay in vitro (Alamar Blue)
- Type: cell-based, Trypanosoma brucei rhodesiense
- CONDITION_PARAMETERS: Trypanosoma brucei; bloodstream form T. b. rhodesiense STIB 900; 70 h incubation; read-out: IC50 (µM) STIB900
Entries whose IC50 is below 10 µM take fulfilled; entries at or above 10 µM take not fulfilled.

> print(dat)
                                   molecule  assigned.class
1  CCCCCCCCCC=CCCCCc1cc(=O)c2ccccc2n1C [Compound 29]   not fulfilled

Incoming: Field: below-cutoff. Rule: recorded IC50 strictly less than 10 µM. Subject: CCCCCCCCCC/C=C/c1cc(=O)c2ccccc2n1CCBr [Compound 18b]
Outgoing: fulfilled

Incoming: Field: below-cutoff. Rule: recorded IC50 strictly less than 10 µM. Subject: CCCCCCCCCCCCC#Cc1cc(=O)c2ccccc2n1C [Compound 35]
Outgoing: not fulfilled

Incoming: Field: below-cutoff. Rule: recorded IC50 strictly less than 10 µM. Subject: CCCCCCCCCCCC/C=C/c1cc(=O)c2ccccc2n1CCC [Compound 18f]
Outgoing: not fulfilled

Incoming: Field: below-cutoff. Rule: recorded IC50 strictly less than 10 µM. Subject: CCCCCCCCCCCC/C=C/c1cc(=O)c2ccccc2n1CCCC [Compound 18g]
Outgoing: not fulfilled

Incoming: Field: below-cutoff. Rule: recorded IC50 strictly less than 10 µM. Subject: CC1=C(/C=C/c2cc(=O)c3ccccc3n2CCBr)C(C)(C)CCC1 [Compound 21]
Outgoing: fulfilled

Incoming: Field: below-cutoff. Rule: recorded IC50 strictly less than 10 µM. Subject: CCCCCC/C=C\CCc1cc(=O)c2ccccc2n1C [Compound 28]
Outgoing: not fulfilled

Incoming: Field: below-cutoff. Rule: recorded IC50 strictly less than 10 µM. Subject: CN1CCN(CCCCCCCCC/C=C/c2cc(=O)c3ccccc3n2C)CC1 [Compound 20]
Outgoing: fulfilled

Incoming: Field: below-cutoff. Rule: recorded IC50 strictly less than 10 µM. Subject: Cn1c(-c2ccc(CCCCCCCCCCN3CCCCC3)cc2)cc(=O)c2ccccc21 [Compound 5b]
Outgoing: fulfilled
